# PROCEDURE SUMMARY: inhibitors of Toxoplasma growth in IFN-γ-primed HeLa – cell-based, ME49Luc, luciferase, 72 h, dose response (AID 1259418)
# MEASUREMENT SETUP: T. gondii ME49Luc in IFN-y HeLa, hits give low values, -100% = high-dose IFN-γ control wells; at 19.5 µM unless noted
Hit rate of the full screen: of about 3,400 compounds, about 840 (25%) were called active. Not shown: some 11% with an inconclusive outcome. These entries were drawn from the full list. Results with a measured potency or affinity are listed apart.
The reader will find reported max activity values listed item by item below.

Study these solved cases before continuing.
>>> print(df.to_string())
                                item_smiles  measured_parameter                         result
0  Cc1nc(-c2ccc(F)cc2)sc1-c1ccc(SCc2ccc(F)cc2)nn1        max activity     12.7% [at 5 µM] (inactive)
1  Cc1nc(-c2ccc(F)cc2)sc1-c1ccc(SCc2c(F)cccc2Cl)nn1        max activity  12.7% [at 0.68 µM] (inactive)
2  COc1ccc(C)cc1NC(=O)Nc1ccc(-c2nc(-c3cc(C)ccc3C)co2)cc1        max activity  9.85% [at 0.35 µM] (inactive)

Exercise: What value of max activity has been recorded for this entry: CN1CCN(Cc2cnc3n2CCN(CC2CCOCC2)C3)CC1
Solution: 10.5% (inactive)

Exercise: What value of measured max activity is listed for Cc1cccc(-c2nc(CSc3nc4c(c(=O)[nH]3)CN(Cc3ccc(F)cc3)CC4)c(C)o2)c1 ?
Solution: 16.6% [at 0.16 µM] (inactive)

Exercise: For the compound shown here, COc1cccc(-c2nc(C)c(-c3ccc(SCc4ccc(C(F)(F)F)cc4)nn3)s2)c1 , give the reported max activity.
Solution: 7.57% [at 0.16 µM] (inactive)

Exercise: Recorded max activity of COc1ccc(-c2nc(C)c(-c3ccc(SCc4ccc(C)cc4)nn3)s2)cc1 , please.
Solution: 10.6% [at 2.6 µM] (inactive)

Exercise: # get_value(readout='max activity', item= COc1ccc(-c2nc(CN(c3ccc(OC)cc3)S(=O)(=O)c3ccccc3C)c(C)o2)cc1 )
Solution: 2.45% (inactive)

Exercise: Given the entry COc1cccc(-c2nc(C)c(-c3ccc(SCc4ccc(Cl)cc4Cl)nn3)s2)c1 , report its measured max activity.
Solution: -7.13% [at 1.35 µM] (inactive)

Exercise: Looking for the measured max activity of Cc1cc(C)cc(NC(=O)N2CCN(Cc3nc(-c4ccccc4C)oc3C)CC2)c1 , can you help?
Solution: 8.24% [at 1.35 µM] (inactive)
